These entries and their values trace back to patent US7794719.

assayed target: Aβ1-40 fibers (human)
test: SPR
measured attribute: Kd (nM)
Note: unit nM is implicit; provide only the numeric part.

INSERT INTO assay_data (binder, recorded_number) VALUES
  ('MS-R 7.9H2 x 7.2L1(L1) Fab (antibody, V domains shown) VH: QLVESGGGLVQPGGSLRLSCAASGFTFSSYAMSWVRQAPGKGLEWVSAINADGNRKYYADSVKGRFTISRDNSKNTLYLQMNSLRAEDTAVYYCARGKGNTHKPYGYVRYFDVWGQGTLVTVSS VL: DIVLTQSPATLSLSPGERATLSCRASQYVDRTYLAWYQQKPGQAPRLLIYGASSRATGVPARFSGSGSGTDFTLTISSLEPEDFATYYCQQIYSFPHTFGQGTKVEIKR', 1.4);

--- query ---
(Q) Quick one: give measured Kd for MS-R 7.4H2 x 7.2L1 Fab (antibody, V domains shown) VH: QLVESGGGLVQPGGSLRLSCAASGFTFSSYAMSWVRQAPGKGLEWVSAINYNGARIYYADSVKGRFTISRDNSKNTLYLQMNSLRAEDTAVYYCARGKGNTHKPYGYVRYFDVWGQGTLVTVSS VL: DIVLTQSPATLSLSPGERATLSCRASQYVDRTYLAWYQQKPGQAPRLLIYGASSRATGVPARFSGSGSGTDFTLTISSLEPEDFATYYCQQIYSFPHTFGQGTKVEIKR
(A) 1.4
